Please provide measured selectivity ratio for the entries that follow.
# PROTOCOL SUMMARY: Selectivity index, ratio of IC50 against human WI38 cells to IC50 for Plasmodium falciparum 3D7
# Format: toxicity, cell-based, WI-38
# CONDITION SUMMARY: read-out: Ratio IC50
I'd appreciate a reply containing only the number, no unit.

*Q* Need selectivity ratio of C=C[C@H]1CN2CC[C@H]1C[C@@H]2[C@@H](O)c1cc(CC[C@@H](C)[C@H]2CC[C@H]3[C@@H]4CC[C@@H]5C[C@H](OC(C)=O)CC[C@]5(C)[C@H]4C[C@H](OC(C)=O)[C@]23C)nc2ccc(OC)cc12 , thanks.
*A* 27

*Q* Entry C=C[C@H]1CN2CC[C@H]1C[C@@H]2[C@@H](O)c1cc(CC[C@@H](C)[C@H]2CC[C@H]3[C@@H]4C[C@H](O)[C@@H]5C[C@H](O)CC[C@]5(C)[C@H]4CC[C@]23C)nc2ccc(OC)cc12 : reported selectivity ratio = ?
*A* 18

*Q* Recorded selectivity ratio for C=C[C@H]1CN2CC[C@H]1C[C@H]2[C@H](O)c1cc(CC[C@@H](C)[C@H]2CC[C@H]3[C@@H]4[C@H](O)[C@H](O)[C@@H]5C[C@H](O)CC[C@]5(C)[C@H]4CC[C@]23C)nc2ccccc12 , please?
*A* 14

*Q* Quick one: selectivity ratio for C=C[C@H]1CN2CC[C@H]1C[C@H]2[C@H](O)c1cc(CC[C@@H](C)[C@H]2CC[C@H]3[C@@H]4[C@H](O)C[C@@H]5C[C@H](O)CC[C@]5(C)[C@H]4C[C@H](O)[C@]23C)nc2ccc(OC)cc12 ?
*A* 11

====

# PROTOCOL SUMMARY: Cytotoxicity against human WI38 cells assessed as inhibition of cell growth at 20 ug/ml by MTT assay
# Assay type: cell-based, WI-38
Assignment: determine reported inhibition at 20 ug/ml for the given molecules.
Numeric answer only, unit % assumed.

*Q* Entry under review: CC(=O)O[C@@H]1CC[C@]2(C)[C@H]3CC[C@]4(C)[C@@H]([C@H](C)CCC(=O)O)CC[C@H]4[C@@H]3C[C@H](OC(C)=O)[C@@H]2C1 . Reported inhibition at 20 ug/ml?
*A* 20

*Q* Request the reported inhibition at 20 ug/ml associated with CC(=O)O[C@@H]1CC[C@@]2(C)[C@H](CC[C@@H]3[C@@H]2CC[C@]2(C)[C@@H]([C@H](C)CCC(=O)O)CC[C@@H]32)C1
*A* 27

*Q* So what's the measured inhibition at 20 ug/ml for this one? C[C@H](CCC(=O)O)[C@H]1CC[C@H]2[C@@H]3CC[C@@H]4C[C@H](O)CC[C@]4(C)[C@H]3C[C@H](O)[C@]12C [DEOXYCHOLIC ACID]
*A* 9

*Q* Requested read-out: inhibition at 20 ug/ml. Entry: CC(=O)O[C@@H]1CC[C@@]2(C)[C@H](CC[C@@H]3[C@@H]2C[C@H](OC(C)=O)[C@]2(C)[C@@H]([C@H](C)CCC(=O)O)CC[C@@H]32)C1
*A* 10

*Q* Form field: reported inhibition at 20 ug/ml of C[C@H](CCC(=O)O)[C@H]1CC[C@H]2[C@@H]3[C@H](O)C[C@@H]4C[C@H](O)CC[C@]4(C)[C@H]3CC[C@]12C [CHENODIOL]
*A* 27
